For each of the compounds below, state its Cl.
- Organism: Rattus norvegicus
- TEST: Open TG-GATES - Regimen: Daily Repeat
- Type: toxicity, organism-based, Sprague-Dawley
- Set-up: regimen Daily Repeat, gender Male, age 6 weeks
- MEASUREMENT CONDITIONS: in vivo, po, 1000 mg/kg, […], tissue Plasma, route gavage, dose level High, time 28 day
Answers are plain numbers, in meq/L.

CC(C)(S)[C@@H](N)C(=O)O ... 105
O=C(O)c1cccnc1 ... 104
O=C(N[C@H](CO)[C@H](O)c1ccc([N+](=O)[O-])cc1)C(Cl)Cl ... 105.8

Asked: Identify measured Cl associated with CCN1CCCC1CNC(=O)c1cc(S(N)(=O)=O)ccc1OC (centres undefined) [SULPIRIDE]
Given back: 103

====

- Species on record: Rattus norvegicus
- TEST: Open TG-GATES - Regimen: Daily Repeat
- Assay type: toxicity, organism-based, Sprague-Dawley
- Design: regimen Daily Repeat, gender Male, age 6 weeks
- MEASUREMENT CONDITIONS: in vivo, po, 0 mg/kg, […], tissue Blood, route gavage, dose level Control, time 14 day
For each of the molecules below, state its Eos.
Give bare numbers, in %.

C[C@]12CCC(=O)C=C1CC[C@@H]1[C@@H]2CC[C@@]2(C)[C@H]1CC[C@]2(C)O [METHYLTESTOSTERONE] ... 1

I would be grateful if you could provide Eos for each of the following entries.
1. Nc1nc(N)c2nc(-c3ccccc3)c(N)nc2n1
2. O=C(N[C@H](CO)[C@H](O)c1ccc([N+](=O)[O-])cc1)C(Cl)Cl [CHLORAMPHENICOL]
3. CCC(C)(C)C(=O)O[C@H]1C[C@@H](C)C=C2C=C[C@H](C)[C@H](CC[C@@H]3C[C@@H](O)CC(=O)O3)[C@H]21 [SIMVASTATIN]

Given back:
1: 1; 2: 1; 3: 1

Could you report Eos for every entry in the following list?
1. CCSCC[C@H](N)C(=O)O [ETHIONINE]
2. Oc1ncnc2[nH]ncc12 [ALLOPURINOL]
3. CC(=N)S [THIOACETAMIDE]

Given back:
1: 1; 2: 1; 3: 0.8

Hello, I would appreciate it if you could give Eos for each entry below.
1. C[C@](N)(Cc1ccc(O)c(O)c1)C(=O)O [METHYLDOPA]
2. CCc1oc2ccccc2c1C(=O)c1cc(I)c(O)c(I)c1 [BENZIODARONE]

Given back:
1
1

====

- Organism: Rattus norvegicus
- TEST: Open TG-GATES - Regimen: Daily Repeat
- Type: toxicity, organism-based, Sprague-Dawley
- Set-up: regimen Daily Repeat, gender Male, age 6 weeks
- MEASUREMENT CONDITIONS: in vivo, po, 0 mg/kg, […], tissue Kidney, route gavage, dose level Control, time 14 day
Can you tell me KIDNEY_TOTAL for the items I'm about to list?
Write the numeric value and append its unit.

Here's what some known entries look like.
O=C(N[C@H](CO)[C@H](O)c1ccc([N+](=O)[O-])cc1)C(Cl)Cl ... 2.6 g
C#C[C@]1(O)CC[C@H]2[C@@H]3CCc4cc(O)ccc4[C@H]3CC[C@@]21C ... 2.6 g

Please state, for each entry, its recorded KIDNEY_TOTAL.
1. Oc1ncnc2[nH]ncc12
2. CC(=N)S [THIOACETAMIDE]
3. CC(=O)Oc1cc(C(C)C)c(OCCN(C)C)cc1C
4. CN1C(=O)OC(C)(C)C1=O

Given back:
2.5 g
2.3 g
2.5 g
2.4 g

====

Kindly supply the reported Ht values for the records listed here.
- Species: Rattus norvegicus
- TEST: Open TG-GATES - Regimen: Daily Repeat
- Assay type: toxicity, organism-based, Sprague-Dawley
- Design: regimen Daily Repeat, gender Male, age 6 weeks
- MEASUREMENT CONDITIONS: in vivo, po, 0 mg/kg, […], tissue Blood, route gavage, dose level Control, time 14 day
One number for each entry, in %.

Oc1ncnc2[nH]ncc12 [ALLOPURINOL] ... 44
C[C@](N)(Cc1ccc(O)c(O)c1)C(=O)O [METHYLDOPA] ... 39.4
CCN1CCCC1CNC(=O)c1cc(S(N)(=O)=O)ccc1OC (stereo unspecified) [SULPIRIDE] ... 43.8
CN1C(=O)OC(C)(C)C1=O [TRIMETHADIONE] ... 43.9

Batch request: Ht per item, same order as input.
1. CCC(C)(C)C(=O)O[C@H]1C[C@@H](C)C=C2C=C[C@H](C)[C@H](CC[C@@H]3C[C@@H](O)CC(=O)O3)[C@H]21 [SIMVASTATIN]
2. CC(=N)S [THIOACETAMIDE]
3. O=C(N[C@H](CO)[C@H](O)c1ccc([N+](=O)[O-])cc1)C(Cl)Cl [CHLORAMPHENICOL]
4. CC(=O)Oc1cc(C(C)C)c(OCCN(C)C)cc1C [MOXISYLYTE]
5. CCSCC[C@H](N)C(=O)O [ETHIONINE]
6. O=C(O)c1cccnc1 [NIACIN]
7. C#C[C@]1(O)CC[C@H]2[C@@H]3CCc4cc(O)ccc4[C@H]3CC[C@@]21C [ETHINYL ESTRADIOL]
8. CCc1oc2ccccc2c1C(=O)c1cc(I)c(O)c(I)c1 [BENZIODARONE]

Given back:
1. 41.7
2. 44.1
3. 44.5
4. 41.2
5. 42.1
6. 41.5
7. 40.3
8. 41.9

Batch of 4 compounds: report Ht for each.
1. Nc1nc(N)c2nc(-c3ccccc3)c(N)nc2n1
2. C[C@]12CCC(=O)C=C1CC[C@@H]1[C@@H]2CC[C@@]2(C)[C@H]1CC[C@]2(C)O [METHYLTESTOSTERONE]
3. CC(C)(S)[C@@H](N)C(=O)O [PENICILLAMINE]
4. CC(C)C(=O)Nc1ccc([N+](=O)[O-])c(C(F)(F)F)c1 [FLUTAMIDE]

Given back:
[44.3, 42.6, 43.7, 42.3]

====

Assign TP to each entry below.
- Species on record: Rattus norvegicus
- TEST: Open TG-GATES - Regimen: Daily Repeat
- Format: toxicity, organism-based, Sprague-Dawley
- Parameters: regimen Daily Repeat, gender Male, age 6 weeks
- MEASUREMENT CONDITIONS: in vivo, po, 100 mg/kg, […], tissue Plasma, route gavage, dose level Low, time 14 day
Answers are plain numbers, in g/dL.

Consider the worked cases shown below.
CC(C)(S)[C@@H](N)C(=O)O ... 6
O=C(O)c1cccnc1 ... 5.8
O=C(N[C@H](CO)[C@H](O)c1ccc([N+](=O)[O-])cc1)C(Cl)Cl ... 5.8

Switching to the query record.
Asked: Supply TP value. Item: CCN1CCCC1CNC(=O)c1cc(S(N)(=O)=O)ccc1OC (centres undefined) [SULPIRIDE]
Given back: 5.8

====

I'd appreciate it if you could supply TBIL values for the items below.
- Organism: Rattus norvegicus
- TEST: Open TG-GATES - Regimen: Daily Repeat
- Type: toxicity, organism-based, Sprague-Dawley
- Design: regimen Daily Repeat, gender Male, age 6 weeks
- MEASUREMENT CONDITIONS: in vivo, po, 1000 mg/kg, […], tissue Plasma, route gavage, dose level High, time 7 day
// unit must come after the numeric part

Take a look at these entries with their results.
CC(C)(S)[C@@H](N)C(=O)O ... 0.066 mg/dL
CCN1CCCC1CNC(=O)c1cc(S(N)(=O)=O)ccc1OC (centres undefined) [SULPIRIDE] ... 0.05 mg/dL
O=C(N[C@H](CO)[C@H](O)c1ccc([N+](=O)[O-])cc1)C(Cl)Cl ... 0.052 mg/dL

Attention now shifts to the item below.
Asked: Give reported TBIL value for O=C(O)c1cccnc1
Given back: 0.004 mg/dL

====

Consider the following compounds; for each one, report its PL.
- Species: Rattus norvegicus
- TEST: Open TG-GATES - Regimen: Daily Repeat
- Assay type: toxicity, organism-based, Sprague-Dawley
- Parameters: regimen Daily Repeat, gender Male, age 6 weeks
- MEASUREMENT CONDITIONS: in vivo, po, 1000 mg/kg, […], tissue Plasma, route gavage, dose level High, time 14 day
Give bare numbers, in mg/dL.

O=C(N[C@H](CO)[C@H](O)c1ccc([N+](=O)[O-])cc1)C(Cl)Cl ... 149.8
CCN1CCCC1CNC(=O)c1cc(S(N)(=O)=O)ccc1OC (centres undefined) [SULPIRIDE] ... 148.4

Hi team, please reply with PL for each item in this list.
1. O=C(O)c1cccnc1
2. CC(C)(S)[C@@H](N)C(=O)O

Given back:
1: 150.8; 2: 148.6

====

- Organism: Rattus norvegicus
- TEST: Open TG-GATES - Regimen: Daily Repeat
- Type: toxicity, organism-based, Sprague-Dawley
- Set-up: regimen Daily Repeat, gender Male, age 6 weeks
- MEASUREMENT CONDITIONS: in vivo, po, 300 mg/kg, 72 h, tissue Plasma, route gavage, dose level Middle, time 3 day
ATTRIBUTE MEASURED: Na (meq/L)
Give bare numbers, in meq/L.

CCN1CCCC1CNC(=O)c1cc(S(N)(=O)=O)ccc1OC (centres undefined) [SULPIRIDE] ... 139.6
CC(C)(S)[C@@H](N)C(=O)O [PENICILLAMINE] ... 144.6
O=C(O)c1cccnc1 [NIACIN] ... 139.6

Switching to the query record.
Asked: Supply reported Na belonging to this molecule: O=C(N[C@H](CO)[C@H](O)c1ccc([N+](=O)[O-])cc1)C(Cl)Cl [CHLORAMPHENICOL]
Given back: 141.2

Numbers sourced from ChEMBL document CHEMBL3885861.
